# system tested: TRAP1 enzyme (Homo sapiens)
# Sequence (Q12931 60-704): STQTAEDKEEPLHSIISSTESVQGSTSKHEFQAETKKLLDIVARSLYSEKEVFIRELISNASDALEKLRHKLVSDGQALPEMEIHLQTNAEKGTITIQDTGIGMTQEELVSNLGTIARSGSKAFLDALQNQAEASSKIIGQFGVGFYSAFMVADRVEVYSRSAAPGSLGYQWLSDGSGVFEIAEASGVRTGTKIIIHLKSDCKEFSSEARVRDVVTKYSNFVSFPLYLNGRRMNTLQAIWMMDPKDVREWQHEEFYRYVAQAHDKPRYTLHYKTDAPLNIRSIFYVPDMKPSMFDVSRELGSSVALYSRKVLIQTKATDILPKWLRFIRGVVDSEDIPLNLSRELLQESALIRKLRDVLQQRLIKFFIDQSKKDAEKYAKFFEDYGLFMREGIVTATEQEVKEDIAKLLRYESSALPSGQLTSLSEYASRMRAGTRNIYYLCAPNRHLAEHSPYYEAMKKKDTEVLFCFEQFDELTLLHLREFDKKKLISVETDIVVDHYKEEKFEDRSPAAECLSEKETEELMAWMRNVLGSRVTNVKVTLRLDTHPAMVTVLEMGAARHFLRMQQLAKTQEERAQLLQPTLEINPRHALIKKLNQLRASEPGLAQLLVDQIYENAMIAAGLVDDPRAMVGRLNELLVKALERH
# measurement protocol: ADP Glo assay of TRAP1 ATPase activity
# Format: biochemical
# test settings: TRAP1 ATPase activation, 150 nM Trap1, 20 μM ATP, geometric mean; read-out: ADP GLO DRC: GeoMean EC50
measured quantity: EC50

structure as smiles: COc1ccc(NC(=O)c2cnc(C3CC3)o2)cc1S(=O)(=O)Nc1c(C)cccc1C
measured quantity: EC50
assay result: 20 to 100 µM

IN: Dear colleague, I am looking for the recorded EC50 of the following compound: COc1ccc(NC(=O)c2ccc3nccnc3c2)cc1S(=O)(=O)Nc1c(C)cccc1C
OUT: 20 to 100 µM

IN: Dear colleague, I am looking for the recorded EC50 of the following compound: COc1ccc(NC(=O)c2ncc(-c3ccccc3)o2)cc1S(=O)(=O)Nc1c(C(C)C)ccnc1C(C)C
OUT: < 10 µM

IN: Dear colleague, I am looking for the recorded EC50 of the following compound: COc1ccc(NC(=O)c2ccc3cn(C)nc3c2)cc1S(=O)(=O)Nc1c(C)cccc1C
OUT: 10 to 20 µM

IN: Dear colleague, I am looking for the recorded EC50 of the following compound: COc1ccc(NC(=O)c2cc3cnccc3s2)cc1S(=O)(=O)Nc1c(C)cccc1C
OUT: 20 to 100 µM

IN: Dear colleague, I am looking for the recorded EC50 of the following compound: O=C(Nc1ccc(F)c(S(=O)(=O)Nc2ccc(Cl)cc2)c1)c1cccc2cnccc12
OUT: 10 to 20 µM

----------
# system tested: TRAP1 enzyme (Homo sapiens, UniProt Q12931)
# measurement protocol: ADP Glo assay of TRAP1 ATPase activity
# Format: biochemical
# test settings: read-out: ADP GLO DRC: Mean Emax
measured quantity: Emax

structure as smiles: COc1ccc(NC(=O)c2nccs2)cc1S(=O)(=O)Nc1c(C)cccc1C
Emax: 160 to 199%
--
structure as smiles: COc1ccc(NC(=O)c2ccc(-c3ccccn3)s2)cc1S(=O)(=O)Nc1c(C)cccc1C
Emax: 160 to 199%
--
structure as smiles: COc1ccc(NC(=O)c2cn(C(C)(C)C)nn2)cc1S(=O)(=O)Nc1c(C)cccc1C
Emax: 160 to 199%
--
structure as smiles: COc1ccc(NC(=O)c2cnc(-c3cccnc3OC)[nH]2)cc1S(=O)(=O)Nc1ccc(Cl)cc1
Emax: 160 to 199%
--
structure as smiles: COc1ccc(NC(=O)c2ccc3cn(C)nc3c2)cc1S(=O)(=O)Nc1c(C)cccc1C
Emax: 200 to 300%
--
structure as smiles: COc1ccc(NC(=O)c2cnc(-c3ccccc3)s2)cc1S(=O)(=O)Nc1c(C)cccc1C
Emax: 160 to 199%
--
structure as smiles: Cc1cc(C)n(Cc2cccc(C(=O)Nc3ccc(F)c(S(=O)(=O)Nc4ccc(Cl)cc4)c3)c2)n1
Emax: 160 to 199%
--
structure as smiles: COc1ccc(NC(=O)c2cc(Cl)ncc2C(F)(F)F)cc1S(=O)(=O)Nc1c(C)cccc1C
Emax: 123 to 159%
--
structure as smiles: COc1ccc(NC(=O)c2ncccc2C(=O)c2ccccc2)cc1S(=O)(=O)Nc1c(C)cccc1C
Emax: 123 to 159%
--
structure as smiles: COc1ccc(NC(=O)c2cccc(-n3cnnn3)c2)cc1S(=O)(=O)Nc1c(C)cccc1C
Emax: 123 to 159%

IN: Dear colleague, I am looking for the recorded Emax of the following compound: Cc1onc(-c2ccccc2Cl)c1C(=O)Nc1ccc(F)c(S(=O)(=O)Nc2ccc(Cl)cc2)c1
OUT: 123 to 159%

IN: Dear colleague, I am looking for the recorded Emax of the following compound: COc1ccc(NC(=O)c2cnc(-c3c(OC)cccc3OC)[nH]2)cc1S(=O)(=O)Nc1ccc(Cl)cc1
OUT: 200 to 300%

----------
# system tested: TRAP1 enzyme (Homo sapiens, UniProt Q12931)
# measurement protocol: Malachite green phosphate assay of TRAP1 ATPase activity
# Assay type: biochemical
# test settings: read-out: Malachite Green Fluor DRC: Mean Emax
measured quantity: Emax

Some compounds with recorded Emax:
compound: COc1ccc(NC(=O)c2cnc(-c3ccccc3)o2)cc1S(=O)(=O)Nc1c(C)cccc1C [Compound 470]
Emax: 200 to 300%

compound: COc1ccc(NC(=O)c2cnc(C(F)(F)F)[nH]2)cc1S(=O)(=O)N1Cc2cccc(F)c2C1 [Compound 225]
Emax: 160 to 199%

Please examine the following record next.
IN: Which measured Emax belongs to CCOC(=O)CCCCCN(c1ccc(Br)cc1)S(=O)(=O)c1cc(NC(=O)c2cnc(C(F)(F)F)[nH]2)ccc1OC [Compound 263] , tested on TRAP1 enzyme (Homo sapiens, UniProt Q12931)?
OUT: 160 to 199%

----------
# system tested: TRAP1 enzyme (Homo sapiens, UniProt Q12931)
# measurement protocol: ADP Glo assay of TRAP1 ATPase activity
# Type: biochemical
# test settings: TRAP1 ATPase activation, 150 nM Trap1, 20 μM ATP, geometric mean; read-out: ADP GLO DRC: GeoMean EC50
pEC50: −log10 of the molar value.
measured quantity: pEC50

IN: Dear colleague, I am looking for the recorded pEC50 of the following compound: COc1ccc(NC(=O)c2cnc(Cl)cc2Cl)cc1S(=O)(=O)Nc1c(C)cccc1C [Compound 1082]
OUT: 4.00 to 4.70

----------
# system tested: TRAP1 enzyme (Homo sapiens, UniProt Q12931)
# Sequence (Q12931 60-704): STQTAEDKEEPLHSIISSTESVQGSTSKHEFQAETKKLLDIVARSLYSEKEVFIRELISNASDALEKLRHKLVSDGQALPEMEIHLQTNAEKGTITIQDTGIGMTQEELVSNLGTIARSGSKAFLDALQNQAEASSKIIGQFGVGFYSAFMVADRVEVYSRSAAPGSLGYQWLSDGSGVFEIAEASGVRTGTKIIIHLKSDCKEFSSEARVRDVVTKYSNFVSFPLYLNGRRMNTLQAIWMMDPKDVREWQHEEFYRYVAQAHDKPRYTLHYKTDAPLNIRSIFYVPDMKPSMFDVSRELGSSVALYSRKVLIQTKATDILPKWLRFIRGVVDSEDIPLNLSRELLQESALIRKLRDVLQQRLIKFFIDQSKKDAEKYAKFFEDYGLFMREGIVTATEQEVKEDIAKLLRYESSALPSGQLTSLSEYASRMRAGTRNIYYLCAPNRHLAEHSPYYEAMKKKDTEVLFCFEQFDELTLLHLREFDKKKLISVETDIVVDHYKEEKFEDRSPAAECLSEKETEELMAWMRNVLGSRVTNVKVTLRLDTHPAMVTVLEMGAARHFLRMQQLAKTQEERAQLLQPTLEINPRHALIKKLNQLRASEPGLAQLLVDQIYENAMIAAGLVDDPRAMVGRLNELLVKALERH
# measurement protocol: ADP Glo assay of TRAP1 ATPase activity
# Assay type: biochemical
# test settings: read-out: ADP GLO DRC: Mean Emax
# Emax listing for each entry below

Some molecules with recorded Emax:
structure as smiles: COc1ccc(NC(=O)c2cccnc2SCc2ccccc2)cc1S(=O)(=O)Nc1c(C)cccc1C
Emax: 123 to 159%

structure as smiles: COc1ccc(NC(=O)c2ncc(-c3ccccc3)o2)cc1S(=O)(=O)Nc1sc(C)c(C)c1C#N
Emax: 160 to 199%

structure as smiles: COc1ccc(NC(=O)c2cnc(-c3ccsc3)[nH]2)cc1S(=O)(=O)Nc1ccc(Cl)cc1
Emax: 160 to 199%

structure as smiles: O=C(Nc1ccc(F)c(S(=O)(=O)Nc2ccc(Cl)cc2)c1)c1nccnc1C(F)(F)F
Emax: 123 to 159%

structure as smiles: COc1ccc(NC(=O)c2cnn3cccnc23)cc1S(=O)(=O)Nc1c(C)cccc1C
Emax: 200 to 300%

structure as smiles: COc1ccc(NC(=O)c2csc(C)c2C)cc1S(=O)(=O)Nc1c(C)cccc1C
Emax: 200 to 300%

structure as smiles: COc1ccc(NC(=O)c2ccc3sc(C)nc3c2)cc1S(=O)(=O)Nc1c(C)cccc1C
Emax: 160 to 199%

structure as smiles: COc1ccc(NC(=O)c2cc(C#N)ccc2Br)cc1S(=O)(=O)Nc1c(C)cccc1C
Emax: 160 to 199%

IN: Dear colleague, I am looking for the recorded Emax of the following molecule: Cc1nc2cccc(C(=O)Nc3ccc(F)c(S(=O)(=O)Nc4ccc(Cl)cc4)c3)c2s1
OUT: 123 to 159%

IN: Dear colleague, I am looking for the recorded Emax of the following molecule: COc1ccc(NC(=O)c2nn(C(C)C)c3ccccc23)cc1S(=O)(=O)Nc1c(C)cccc1C
OUT: 123 to 159%

IN: Dear colleague, I am looking for the recorded Emax of the following molecule: COc1ccc(NC(=O)c2ccnn2C(C)C)cc1S(=O)(=O)Nc1c(C)cccc1C
OUT: 200 to 300%

IN: Dear colleague, I am looking for the recorded Emax of the following molecule: COc1ccc(NC(=O)c2cccc3ccoc23)cc1S(=O)(=O)Nc1c(C)cccc1C
OUT: 200 to 300%

IN: Dear colleague, I am looking for the recorded Emax of the following molecule: COc1ccc(NC(=O)c2c(C(F)(F)F)coc2C)cc1S(=O)(=O)Nc1c(C)cccc1C
OUT: 160 to 199%

IN: Dear colleague, I am looking for the recorded Emax of the following molecule: COc1ccc(NC(=O)c2cccc(-n3cncn3)c2)cc1S(=O)(=O)Nc1c(C)cccc1C
OUT: 160 to 199%

IN: Dear colleague, I am looking for the recorded Emax of the following molecule: COc1ccc(NC(=O)c2ccccc2Oc2ccccc2)cc1S(=O)(=O)Nc1c(C)cccc1C
OUT: 160 to 199%

IN: Dear colleague, I am looking for the recorded Emax of the following molecule: COc1ccc(NC(=O)c2cc(N3CCCC3)ccn2)cc1S(=O)(=O)Nc1c(C)cccc1C
OUT: 160 to 199%

Hey, just so you know, these numbers are from patent US20230174523A1.
